tested on: NCI-H522 lung; test: NCI-60 one-dose screen, 48 h; conditions: 10 µM unless noted
About 83,000 compounds went through this panel and 20% of them were active in at least one assay; those are over-represented in the sample as a whole. Calls of active or inactive are those of the source. The calls were made as follows: active = growth percent below 10; inactive = the rest.
Outcome codes: YES (active), NO (inactive)

[
  {
    "MOLECULE": "Cc1nc(C)c(C)nc1C",
    "ASSIGNED_CATEGORY": "NO"
  },
  {
    "MOLECULE": "Cc1cc(C)c(NC(=O)c2sc3nc4c(cc3c2N)CCCCCC4)c(C)c1",
    "ASSIGNED_CATEGORY": "YES"
  },
  {
    "MOLECULE": "C=C(C)[C@@H]1CC[C@]2(C(=O)N=C=S)CC[C@]3(C)[C@H](CC[C@@H]4[C@@]5(C)CCC(=O)C(C)(C)[C@@H]5CC[C@]43C)[C@@H]12",
    "ASSIGNED_CATEGORY": "NO"
  },
  {
    "MOLECULE": "Cc1cnc(SCc2ccc(Cl)cc2Cl)nc1Nc1ccc(Cl)c(Cl)c1",
    "ASSIGNED_CATEGORY": "NO"
  },
  {
    "MOLECULE": "COc1ccccc1-c1ccc2nc(NC(=O)Nc3cc(C(F)(F)F)cc(C(F)(F)F)c3)sc2c1",
    "ASSIGNED_CATEGORY": "YES"
  },
  {
    "MOLECULE": "CCC1=C[C@H]2CN(CCc3c([nH]c4ccccc34)[C@@](C(=O)OC)(c3cc4c(cc3OC)N(C)[C@H]3[C@@](O)(C(=O)OC)[C@H](OC(C)=O)[C@]5(CC)[C@@H]6C[C@@H]6CN6CC[C@]43[C@@H]65)C2)C1",
    "ASSIGNED_CATEGORY": "YES"
  },
  {
    "MOLECULE": "N#Cc1c(-c2ccc(Cl)cc2)cc(-c2cc3ccccc3o2)nc1SCC(=O)c1ccc(Cl)cc1",
    "ASSIGNED_CATEGORY": "NO"
  },
  {
    "MOLECULE": "COc1cc2nc3c(=O)n(CCN(C)C)cnn3c(=O)c2cc1OC",
    "ASSIGNED_CATEGORY": "NO"
  },
  {
    "MOLECULE": "COC(=O)c1ccc2c(c1)n(Cc1ccc3ccccc3c1)c[n+]2Cc1ccc2ccccc2c1",
    "ASSIGNED_CATEGORY": "NO"
  },
  {
    "MOLECULE": "CC(C)(C)c1nn(-c2ccccc2)c2c1COCN2Cc1ccc(Cl)cc1",
    "ASSIGNED_CATEGORY": "YES"
  },
  {
    "MOLECULE": "COc1ccc(/C=C/C(=O)Nc2ncnc3nc[nH]c23)cc1",
    "ASSIGNED_CATEGORY": "NO"
  },
  {
    "MOLECULE": "c1ccc(-c2n(Cc3ccc4ccccc4n3)cc[n+]2Cc2ccc3ccccc3c2)cc1",
    "ASSIGNED_CATEGORY": "YES"
  },
  {
    "MOLECULE": "CCOCc1cc(C(C)(C)C)ccc1O",
    "ASSIGNED_CATEGORY": "NO"
  },
  {
    "MOLECULE": "COc1ccc(C(=O)c2cc(OC)c(OC)c(OC)c2)cc1OC(=O)CCl",
    "ASSIGNED_CATEGORY": "YES"
  },
  {
    "MOLECULE": "C=C1C(=O)O[C@H]2[C@H]1CC/C(COC(=O)CCCCC(=O)OC/C1=C/CC[C@@]3(C)O[C@H]3[C@H]3OC(=O)C(=C)[C@@H]3CC1)=C\\CC[C@@]1(C)O[C@@H]21",
    "ASSIGNED_CATEGORY": "YES"
  },
  {
    "MOLECULE": "FC(F)(F)c1ccc2c(Nc3cccc(C4CC(c5ccccc5)=NN4c4ccc(Cl)cc4)c3)ccnc2c1 (stereo unspecified)",
    "ASSIGNED_CATEGORY": "NO"
  },
  {
    "MOLECULE": "C=C1C(=O)O[C@H]2[C@H]1CC/C(COC(=O)c1cccnc1N)=C\\CC[C@@]1(C)O[C@@H]21",
    "ASSIGNED_CATEGORY": "YES"
  },
  {
    "MOLECULE": "CCOCc1nc2ccccc2c(=O)[nH]1",
    "ASSIGNED_CATEGORY": "NO"
  },
  {
    "MOLECULE": "O=C(CCc1nnc2sc(OCc3ccccc3)nn12)c1nc2ccc([N+](=O)[O-])cc2[nH]1",
    "ASSIGNED_CATEGORY": "NO"
  },
  {
    "MOLECULE": "O=C(Nc1ccccc1)NS(=O)(=O)c1c[nH]c(=S)[nH]c1=O",
    "ASSIGNED_CATEGORY": "NO"
  },
  {
    "MOLECULE": "CC1(c2ccccc2Cl)NC(=O)NC1=O (stereo unspecified)",
    "ASSIGNED_CATEGORY": "NO"
  },
  {
    "MOLECULE": "COc1ccc(NC(=O)Nc2ccc(Nc3nc(C)cc(Nc4ccc(C)cc4)n3)cc2)cc1",
    "ASSIGNED_CATEGORY": "YES"
  },
  {
    "MOLECULE": "CC(C)NS(=O)(=O)c1cccc(-c2ccc3c4c(n(CCCN(C)C)c(=O)c3c2)-c2ccccc2C4=O)c1",
    "ASSIGNED_CATEGORY": "NO"
  },
  {
    "MOLECULE": "C#C[C@@]1(O)[C@@H](CO)O[C@@H](n2cnc3c(-c4ccccc4)ncnc32)[C@@H]1O",
    "ASSIGNED_CATEGORY": "NO"
  },
  {
    "MOLECULE": "COc1ccc2c(c1)C1(C(=O)N2)C(C#N)=C(c2ccccc2)Nc2c1c(-c1ccccc1)nn2-c1ccccc1 (stereo unspecified)",
    "ASSIGNED_CATEGORY": "NO"
  },
  {
    "MOLECULE": "NC(=N\\N=C\\c1ccccc1O)/C(N)=N/N=C/c1ccccc1O",
    "ASSIGNED_CATEGORY": "NO"
  },
  {
    "MOLECULE": "O=C(CN1N=C(c2ccc(F)cc2)CCC1=O)Nc1nc2ccccc2s1",
    "ASSIGNED_CATEGORY": "YES"
  },
  {
    "MOLECULE": "CC(=O)Nc1c(C(=O)Nc2ccccc2)sc2nc3c(cc12)C(OC(C)=O)CCC3 (stereo unspecified)",
    "ASSIGNED_CATEGORY": "NO"
  },
  {
    "MOLECULE": "N#CC1C(c2ccc(Cl)cc2)=Nc2c(c(-c3ccccc3)nn2-c2ccccc2)C12C(=O)Nc1ccc(Cl)cc12 (stereo unspecified)",
    "ASSIGNED_CATEGORY": "NO"
  },
  {
    "MOLECULE": "C#C[C@@]1(O)[C@@H](CO)O[C@@H](n2cc(I)c3c(N)ncnc32)[C@@H]1O",
    "ASSIGNED_CATEGORY": "YES"
  },
  {
    "MOLECULE": "C=C(C)[C@@H]1CC[C@]2(C(=O)O)CC[C@]3(C)[C@H](CC[C@@H]4[C@@]5(C)C[C@@H](CC#Cc6ccccc6)C(=O)C(C)(C)[C@@H]5CC[C@]43C)[C@@H]12",
    "ASSIGNED_CATEGORY": "NO"
  },
  {
    "MOLECULE": "Cc1nccc2c3ccc(OCc4cn(-c5ccc(Br)cc5)nn4)cc3n(CC(C)C)c12",
    "ASSIGNED_CATEGORY": "NO"
  },
  {
    "MOLECULE": "COCCOC(=O)COc1ccc(OC)cc1",
    "ASSIGNED_CATEGORY": "NO"
  },
  {
    "MOLECULE": "COC(=O)[C@]1(C)CCC[C@]2(C)[C@H]3C[C@H]4C(C(C)C)=C[C@]3(CC[C@H]21)[C@@H]1C(=O)N(CCC#N)C(=O)[C@@H]14",
    "ASSIGNED_CATEGORY": "NO"
  },
  {
    "MOLECULE": "N#Cc1ccc(C2C3=C(CCCC3=O)OC3=C2C(=O)c2ccccc2C3=O)cc1 (stereo unspecified)",
    "ASSIGNED_CATEGORY": "YES"
  },
  {
    "MOLECULE": "S=C(Nc1ccc(Cl)cc1)c1ccccn1",
    "ASSIGNED_CATEGORY": "NO"
  }
]
